So I've got MIC50 readings for S.viridans group, take a look.
PROPERTY MEASURED: MIC50 (µg/mL)

Nc1nc(/C(=N/O)C(=O)N[C@@H]2C(=O)N3C(C(=O)O)=C(/C=C4\CCN(CC(F)(F)F)C4=O)CS[C@H]23)cs1    2
COc1ccc(N2CC/C(=C\C3=C(C(=O)O)N4C(=O)[C@@H](NC(=O)/C(=N\O)c5csc(N)n5)[C@H]4SC3)C2=O)cc1    0.5
Nc1nc(/C(=N/O)C(=O)N[C@@H]2C(=O)N3C(C(=O)O)=C(/C=C4\CCN(C5CC5)C4=O)CS[C@H]23)cs1    2
CC(C)(C)N1CC/C(=C\C2=C(C(=O)O)N3C(=O)[C@@H](NC(=O)/C(=N\O)c4csc(N)n4)[C@H]3SC2)C1=O    2

A = C=CC1=C(C(=O)O)N2C(=O)[C@@H](NC(=O)/C(=N\O)c3csc(N)n3)[C@H]2SC1 [Cefdinir, reference compound]
B = CON1CC/C(=C\C2=C(C(=O)O)N3C(=O)[C@@H](NC(=O)/C(=N\O)c4csc(N)n4)[C@H]3SC2)C1=O
Q) // compare: A vs B , metric MIC50, want the smaller Field: selected label. Fill in the label of the entry you choose.
A) B
(B: 2 µg/mL, A: 8 µg/mL)

====

Tested on: S.pneumoniae Q19
TEST: Antibacterial spectrum (MIC), agar dilution
Assay type: cell-based
MEASUREMENT CONTEXT: Streptococcus pneumoniae, read-out: MIC
PROPERTY MEASURED: MIC

Look over these answered cases.
CON1CC/C(=C\C2=C(C(=O)O)N3C(=O)[C@@H](NC(=O)/C(=N\O)c4csc(N)n4)[C@H]3SC2)C1=O [G]    ≤ 0.06 µg/mL
Nc1nc(/C(=N/O)C(=O)N[C@@H]2C(=O)N3C(C(=O)O)=C(/C=C4\CCN(CC(F)(F)F)C4=O)CS[C@H]23)cs1 [E]    ≤ 0.06 µg/mL
CO/N=C(\C(=O)N[C@@H]1C(=O)N2C(C(=O)O)=C(CSc3nc(=O)c(=O)[nH]n3C)CS[C@H]12)c1csc(N)n1 [Ceftriaxone, reference compound]    ≤ 0.06 µg/mL
CC(C)(C)N1CC/C(=C\C2=C(C(=O)O)N3C(=O)[C@@H](NC(=O)/C(=N\O)c4csc(N)n4)[C@H]3SC2)C1=O [J]    0.12 µg/mL
Nc1nc(/C(=N/O)C(=O)N[C@@H]2C(=O)N3C(C(=O)O)=C(/C=C4\CCN(C5CC5)C4=O)CS[C@H]23)cs1 [D]    ≤ 0.06 µg/mL
N#CCN1CC/C(=C\C2=C(C(=O)O)N3C(=O)[C@@H](NC(=O)/C(=N\O)c4csc(N)n4)[C@H]3SC2)C1=O [M]    ≤ 0.06 µg/mL

Read the next record carefully.
Summary for this compound, C=CC1=C(C(=O)O)N2C(=O)[C@@H](NC(=O)/C(=N\O)c3csc(N)n3)[C@H]2SC1 [Cefdinir, reference compound] : MIC is 0.25 µg/mL

====

System: S.aureus MSSA
PROPERTY MEASURED: MIC90 (mg/L)

Look over these answered cases.
Nc1nc(/C(=N/O)C(=O)N[C@@H]2C(=O)N3C(C(=O)O)=C(/C=C4\CCN(CC(F)(F)F)C4=O)CS[C@H]23)cs1 [E]    1
Nc1nc(/C(=N/O)C(=O)N[C@@H]2C(=O)N3C(C(=O)O)=C(/C=C4\CCN(C5CC5)C4=O)CS[C@H]23)cs1 [D]    1
CC(C)(C)N1CC/C(=C\C2=C(C(=O)O)N3C(=O)[C@@H](NC(=O)/C(=N\O)c4csc(N)n4)[C@H]3SC2)C1=O [J]    2
Nc1nc(/C(=N/O)C(=O)N[C@@H]2C(=O)N3C(C(=O)O)=C(/C=C4\CCN(CCF)C4=O)CS[C@H]23)cs1 [F]    1

P = CON1CC/C(=C\C2=C(C(=O)O)N3C(=O)[C@@H](NC(=O)/C(=N\O)c4csc(N)n4)[C@H]3SC2)C1=O [G]
Q = C=CC1=C(C(=O)O)N2C(=O)[C@@H](NC(=O)/C(=N\O)c3csc(N)n3)[C@H]2SC1 [Cefdinir, reference compound]
R = CO/N=C(\C(=O)N[C@@H]1C(=O)N2C(C(=O)O)=C(CSc3nc(=O)c(=O)[nH]n3C)CS[C@H]12)c1csc(N)n1 [Ceftriaxone, reference compound]
S = COc1ccc(N2CC/C(=C\C3=C(C(=O)O)N4C(=O)[C@@H](NC(=O)/C(=N\O)c5csc(N)n5)[C@H]4SC3)C2=O)cc1 [I]
Q) Ordering: ascending MIC90. # list labels per requested ordering
A) S, P, Q, R
